Just for reference, patent US20210401776A1 is where these values come from.

# protocol: fixed-speed rotarod, minimal motor impairment (MMI)
# Type: in vivo, male CF-1 mice
# recorded_conditions: male, CF-1, mouse, in vivo, intraperitoneal; reported under 6 Hz 44 mA; 95% CI 25.3 to 53.0
# Description: Methods: Testing progressed in three phases: identification, time course, and dose response. […] Dose-dependent anticonvulsant activity of FFA was assessed by testing between 0.25 and 120 mg/kg (n=8/dose). The effect of FFA on mild motor impairment (MMI) in the fixed-speed rotarod (FSR) was assessed prior to the MES, 44 mA 6 Hz, and CKM tests.
measured_endpoint: TD50

Entry CCNC(C)Cc1cccc(C(F)(F)F)c1 (racemic) , TD50 reported as 34.6 mg/kg
